Target: T1, interleukin 18 binding protein (IL-18BP) (UniProt O95998 31-194)
T1 sequence (looked up): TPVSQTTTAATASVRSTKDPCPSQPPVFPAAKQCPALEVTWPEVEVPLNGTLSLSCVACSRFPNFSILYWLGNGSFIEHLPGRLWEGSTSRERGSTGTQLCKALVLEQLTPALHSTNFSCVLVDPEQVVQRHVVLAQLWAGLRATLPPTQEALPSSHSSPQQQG
Experiment: cell-based or functional assay
Parameter: Ratio (-BP/+BP), DF-1,000,000. Scope: all listed entries.
MEASURED PROPERTY: Ratio (-BP/+BP), DF-1,000,000

BINDER | REPORTED VALUE
IL-18 variant K53T, S55G, P107A, H109Q (ligand) YFGKLESKLSVIRNLNDQVLFIDQGNRPLFEDMTDSDMRDNAPRTIFIISMYTDGQPRGMAVTISVKSEKISTLSSENKIISFKEMNPPDNIKDTKSDIIFFQRSVAGQDNKMQFESSSYEGYFLASEKERDLFKLILKKEDELGDRSIMFTVQNED | 0.87
IL-18 variant K53D, S55N, H109I (ligand) YFGKLESKLSVIRNLNDQVLFIDQGNRPLFEDMTDSDMRDNAPRTIFIISMYDDNQPRGMAVTISVKSEKISTLSSENKIISFKEMNPPDNIKDTKSDIIFFQRSVPGIDNKMQFESSSYEGYFLASEKERDLFKLILKKEDELGDRSIMFTVQNED | 0.99
